System: SF8628
experimentalProtocol: IC50 of two forms of TG02 in DIPG cell lines in vitro
Assay type: cell-based, human
assayConditions: SF8628 cell line; listed as TG02 obtained from Adastra Pharmaceuticals
reportedEndpoint: pIC50
// field semantics: pIC50 = negative decimal log of concentration (mol/L)

Incoming: For SF8628, provide pIC50 of CN1C/C=C/CCOc2cccc(c2)-c2ccnc(n2)Nc2cccc(c2)C1 [TG02] please.
Outgoing: 7.15

---

System: DIPG007
experimentalProtocol: IC50 of two forms of TG02 in DIPG cell lines in vitro
Assay type: cell-based, human
assayConditions: Homo sapiens; DIPG007 cell line
Protocol: Direct cell counts were performed using the Countess II FL Automated Cell Counter (ThermoFisher Scientific). Alamar blue viability (ThermoFisher Scientific) and the 5-bromo-2′-deoxyuridine (BrdU) incorporated cell proliferation assay (Cell Signaling Technology Cat #6813) were performed using the manufacturer's standard protocol. EC50 curve analysis was performed using raw fluorescent Alamar blue values that were inputted into PRISM 7.0. […]
reportedEndpoint: IC50 (nM)
// units = nM; emit number, no label

Incoming: Which IC50 is reported with DIPG007 for this entry: CN1C/C=C/CCOc2cccc(c2)-c2ccnc(n2)Nc2cccc(c2)C1 [SB1317, reference compound] ?
Outgoing: 170
